Assay: Saturation solubility test of propranolol in various solvents at 37° C.
Type: physicochemical
Details: propranolol in Water, 37° C., n = 3; read-out: Mean concentration (mg/ml) ± SD
quantity-kind: solubility thermodynamic

> print(dat)
                                   compound       val
1  CC(C)NCC(O)COc1cccc2ccccc12 (stereo not shown)  29 mg/mL
